Every entry's value here was drawn from PubChem BioAssay (NCI).

TGI overview
- System: SR leukemia
- assay.name: NCI tumour cell line growth inhibition, 48 h
observable: TGI (µM)

molecule | qualifier | value.reported
COc1ccc(NC(=O)N/N=C/c2c[nH]c3ccccc23)cc1 | > | 53.4
C/C(=N\N=C\c1cc([N+](=O)[O-])ccc1Cl)c1ccc2c(c1)Nc1ccccc1S2 | = | 81
CC1[C@H]2[C@H](C[C@H]3[C@@H]4CC=C5c6sc(Nc7ccccc7F)nc6CC[C@]5(C)[C@H]4CC[C@@]32C)O[C@]12CC[C@@H](C)CO2 (some centres undefined) | > | 100
COc1ccccc1[C@H]1C(C(=O)c2ccc(Cl)cc2)C2(N[C@@H]1c1ccccc1)C(=O)Nc1ccccc12 (some centres undefined) | = | 4.26

====

- System: MDA-MB-468 breast
- assay.name: NCI tumour cell line growth inhibition, 48 h

compound | measurement.target | TGI
Cn1cc(C2=C(N3CCOCC3)C(=O)NC2=O)c2ccccc21 | MDA-MB-468 breast | > 25 µM
CC1[C@H]2[C@H](C[C@H]3[C@@H]4CC=C5c6sc(Nc7ccccc7F)nc6CC[C@]5(C)[C@H]4CC[C@@]32C)O[C@]12CC[C@@H](C)CO2 (stereo partly drawn) | MDA-MB-468 breast | > 100 µM
CCCCCn1c(C)cc(/C=C\c2ccc3cc(C)ccc3[n+]2C)c1C | MDA-MB-468 breast | 0.0523 µM

====

- System: K-562 leukemia
- assay.name: NCI tumour cell line growth inhibition, 48 h
observable: GI50

molecule | value.reported
CC1[C@H]2[C@H](C[C@H]3[C@@H]4CC=C5c6sc(Nc7ccccc7F)nc6CC[C@]5(C)[C@H]4CC[C@@]32C)O[C@]12CC[C@@H](C)CO2 (some centres undefined) | 26.6 µM
C/C(=N\N=C\c1cc([N+](=O)[O-])ccc1Cl)c1ccc2c(c1)Nc1ccccc1S2 | 16.8 µM
CO[C@H]1CSS[C@@H]1Cn1nc(-c2ccc(Oc3ccccc3)cc2)c2c(N)ncnc21 | 2.83 µM
COc1ccccc1[C@H]1C(C(=O)c2ccc(Cl)cc2)C2(N[C@@H]1c1ccccc1)C(=O)Nc1ccccc12 (some centres undefined) | 1.78 µM
